Origin of measurements: the supplement of paper PMC13380429

The following molecules are listed with their measured cell viability values.
test system: Caco-2; assay: cell viability relative to DMSO; higher = less toxic; settings: 72 h; 1000 nM
recorded_metric: cell viability (%)

1) CC(=O)NCCCS(=O)(=O)O [acamprosate] = 96.3
2) O=C(Nc1cc(C(F)(F)F)ccc1O)Nc1cc(C(F)(F)F)ccc1O = 95
3) Cc1ccc(NC2=NCCN2)c(Cl)c1 = 99
4) N#Cc1nn(-c2c(Cl)cc(C(F)(F)F)cc2Cl)c(N)c1[S+]([O-])C(F)(F)F (stereo not drawn) = 96.7
5) Cc1ccccc1C(=O)c1ccc(Nc2ccc(Br)cc2N)cc1Cl = 85.7
6) CC1=C(C)C(=O)C(C(CCCCCC(=O)O)c2ccccc2)=C(C)C1=O (stereo not drawn) = 90.4
7) Cc1cc(C#N)cc(C)c1Oc1nc(Nc2ccc(C#N)cc2)nc(N)c1Br = 105
8) C=CC1=C(C)c2cc3[nH]c(cc4nc(cc5[nH]c(cc1n2)c(C)c5CCC(=O)O)C(CCC(=O)O)=C4C)c(C)c3C=C = 94.4
9) CCCCC(CC)CNC(=N)NC(=N)NCCCCCCNC(=N)NC(=N)NCC(CC)CCCC (stereo not drawn) = 101
10) N#Cc1cn([C@@H]2O[C@H](CO)[C@@H](O)[C@H]2O)c2ncnc(N)c12 = 34.9
11) C[C@]12CC[C@H]3[C@@H](CC[C@@]45O[C@@H]4C(O)=C(C#N)C[C@]35C)[C@@H]1CC[C@@H]2O = 97.6
12) CC(O)(C(=O)Nc1ccc(S(=O)(=O)c2ccccc2)cc1)C(F)(F)F (stereo not drawn) = 107
13) CON = 96.9
14) CCN(CC)C(=S)S [ditiocarb-sodium-trihydrate] = 89.2
15) COc1ccc(-c2cc3nccn3c(Nc3ncccc3C(N)=O)n2)cc1OC = 80.8
16) CO[C@@H](C(=O)N1Cc2[nH]nc(NC(=O)c3ccc(N4CCN(C)CC4)cc3)c2C1)c1ccccc1 = 82.9
17) COc1cc2c(NC3CCN(C(C)C)CC3)nc(N3CCC(F)(F)CC3)nc2cc1OCCCN1CCCC1 = 106
18) CC(C)c1ccc(CC(=O)N2CCC[C@@H](c3cccc(OC(C)(C)C(=O)O)c3)C2)cc1 = 97.6

====

system: Calu-3; experiment: cell viability relative to DMSO; higher = less toxic; conditions: 72 h; 100 nM
recorded_metric: cell viability (%)

1. CCNC(=O)c1noc(-c2cc(C(C)C)c(O)cc2O)c1-c1ccc(CN2CCOCC2)cc1 = 46
2. O=C(COP(=O)(O)O)[C@@H](O)[C@H](O)[C@H](O)COP(=O)(O)O = 99.9
3. Clc1cc(Cl)c(OCC#CI)cc1Cl = 99.9
4. O=P(O)(O)C(O)(Cc1cnc2ccccn12)P(=O)(O)O = 104
5. N#CSc1cc(SC#N)c(N)nc1N = 93.9
6. CN[C@@H]1[C@@H](O[C@H]2O[C@H](CO)[C@@H](N)[C@H](O)[C@H]2O)O[C@H]2C[C@@H](N)[C@@H](O[C@H]3[C@H](O)[C@@H](O)[C@H](N)C[C@@H]3N)O[C@@H]2[C@@H]1O = 100
7. CC(=O)N[C@@H](CSSC[C@H](NC(C)=O)C(=O)O)C(=O)O = 103
8. CCNC(=O)NS(=O)(=O)c1sc(CC(C)C)cc1-c1ccc(Cn2c(-c3ccccc3)nc(OC)c2C=O)cc1 = 110

====

The following compounds are listed with their measured drug sensitivity score values.
tested on: HepG2; experiment: drug sensitivity score (DSS) for viability; higher = more toxic; extreme values may be limits of the assay; details: 72 h
recorded_metric: drug sensitivity score

1. CO[C@@]1(NC(=O)Cc2cccs2)C(=O)N2C(C(=O)O)=C(COC(N)=O)CS[C@@H]21 = 0
2. CN1c2ccccc2C(=O)N2CCc3c([nH]c4ccccc34)C21 (stereo in doubt) = 9.9
3. Nc1nc(N)nc(-c2cc(Cl)ccc2Cl)n1 = 0
4. C[C@@H](CN1CC(=O)NC(=O)C1)N1CC(=O)NC(=O)C1 = 0
5. O=C(O)c1cc(=O)c2ccccc2o1 = 0
6. O=P1(NCCCl)OCCCN1CCCl (configuration not stated) [ifosfamide] = 0
7. CO[C@H]1C[C@H](O[C@@H]2/C(C)=C/C[C@@H]3C[C@@H](C[C@]4(CC[C@H](C)[C@@H](C5CCCCC5)O4)O3)OC(=O)[C@@H]3C=C(C)/C(=N/O)[C@H]4OC/C(=C\C=C\[C@@H]2C)[C@]43O)O[C@@H](C)[C@@H]1O = 0.1
8. Oc1ccc2c3c1O[C@H]1[C@@H](O)CC[C@@]4(O)[C@@H](C2)N(CC2CCC2)CC[C@]314 = 0
9. Cc1ccc(-c2nc3ccc(C)cn3c2CC(=O)N(C)C)cc1 = 0
10. COc1cc2c(NC3CCN(C(C)C)CC3)nc(N3CCC(F)(F)CC3)nc2cc1OCCCN1CCCC1 = 4
11. CCCCOC(=O)c1ccc(N)cc1 = 0
12. O=[N+]([O-])c1cn2c(n1)OC[C@@H](OCc1ccc(OC(F)(F)F)cc1)C2 = 0
13. Cc1cc(Nc2ncnc3ccc(NC4=NC(C)(C)CO4)cc23)ccc1Oc1ccn2ncnc2c1 = 0.2
14. COc1ccc(-c2cc(=O)c3c(OC)c(OC)c(OC)c(OC)c3o2)cc1OC = 3.4
15. CCCN(CCC)CCc1ccc(OC)c(OCCc2ccccc2)c1 = 0
16. CC[C@@]1(O)C(=O)OCc2c1cc1n(c2=O)Cc2cc3cc(O)ccc3nc2-1 [10-hydroxycamptothecin] = 31.8
17. Nc1nc(/C(=C/CC(=O)O)C(=O)N[C@@H]2C(=O)N3C(C(=O)O)=CCS[C@H]23)cs1 = 0

====

system: U2OS; experiment: cell viability relative to DMSO; higher = less toxic; conditions: 72 h; 100 nM
recorded_metric: cell viability (%)

1) COc1cc2nc(N3CCN(C(=O)COc4c(OC)cccc4C(C)C)CC3)nc(N)c2cc1OC [Rec-15/2615] = 94.3
2) CNc1cc2c(Nc3cccc(Br)c3)ncnc2cn1 = 98.3
3) Cn1c(=O)n(-c2ccc(C(C)(C)C#N)cc2)c2c3cc(-c4cnc5ccccc5c4)ccc3ncc21 [NVP-BEZ235] = 98.9
4) COc1ccc(-c2csc(NC(=O)[C@H]3CCCCN3S(=O)(=O)c3ccc(C)cc3)n2)cc1 [ML277] = 101
5) O=C(O)c1ccccc1O [salicylic-acid] = 98.5
6) CC(C)N(CCCNC(=O)Nc1ccc(C(C)(C)C)cc1)C[C@H]1O[C@@H](n2ccc3c(N)ncnc32)[C@H](O)[C@@H]1O = 92.9
7) C#CCN[C@@H]1CCc2ccccc21 [rasagiline] = 97.5
8) CNCCC(Oc1ccccc1OC)c1ccccc1 (configuration not stated) [nisoxetine] = 102
9) NCCCCN=C(N)N [agmatine] = 100
10) CCC(=O)[C@@]1(C)[C@H](C)C[C@H]2[C@@H]3CCC4=CC(=O)C=C[C@]4(C)[C@H]3[C@@H](O)C[C@@]21C [rimexolone] = 100
11) CO[C@@]1(NC(=O)Cc2cccs2)C(=O)N2C(C(=O)O)=C(COC(N)=O)CS[C@@H]21 [cefoxitin] = 96.3
12) CN(C)[C@@H]1C(O)=C(C(N)=O)C(=O)[C@@]2(O)C(O)=C3C(=O)c4c(O)cccc4[C@@](C)(O)[C@H]3C[C@@H]12 [tetracycline] = 102
13) CC(C)[C@H](N)C(=O)OCC(CO)OCn1cnc2c(=O)nc(N)[nH]c21 (mixture of isomers) [valganciclovir] = 98.2
14) COc1cc2c(NC3CCN(CC4CCCCC4)CC3)nc(N3CCCN(C(C)C)CC3)nc2cc1OCCCN1CCCCC1 [UNC0631] = 102
15) CON [methoxyamine] = 96.7
16) Clc1cc(Cl)c(OCC#CI)cc1Cl [haloprogin] = 97.5
17) CNC[C@H](O)c1cccc(O)c1 [phenylephrine] = 98.9
18) C=C[C@@]1(C)CC(=O)[C@]2(O)[C@@]3(C)[C@@H](O)CCC(C)(C)[C@@H]3[C@H](O)[C@H](OC(C)=O)[C@@]2(C)O1 [colforsin] = 95.9
19) CN(C)c1cccc(Oc2cnc(Nc3cccc(O)c3)nc2)c1 [SEN-1269] = 95.5
20) O=C(Nc1cccc(C(F)(F)F)c1)Nc1ccc(Br)cc1-c1nnn[nH]1 [NS-3623] = 97.6
21) COc1ccc(CCNCC(O)COc2cccc(C)c2)cc1OC (configuration not stated) [bevantolol] = 101
22) COC(=O)c1c(C)[nH]c(C)c1C(=O)c1ccccc1Cc1ccccc1 = 87.8
23) CN1c2ccccc2C(=O)N2CCc3c([nH]c4ccccc34)C21 (stereo in doubt) [evodiamine] = 99.7
24) CN[C@@H]1[C@@H](O)[C@@H](O[C@@H]2[C@@H](O)[C@H](O[C@H]3OC(CN)=CC[C@H]3N)[C@@H](N)C[C@H]2N)OC[C@]1(C)O [Sisomicin (sulfate)] = 99.7
25) CCCN(CCC)CCc1ccc(OC)c(OCCc2ccccc2)c1 [NE-100] = 104
26) NC[C@@H](O)CC(=O)O [aminohydroxybutyric-acid] = 96.4
27) N=C(N)NC(=N)NCCc1ccccc1 [phenformin] = 93.8
